Listed here are compounds together with their documented differentiation response.
# assayText: promoters of myeloid differentiation in arrested cells, primary screen, cell-based, GFP/MAC1 double positive, flow cytometry, validation set (AID 588685);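 further: compound exposure lasts four days before antibody staining and flow analysis; 0% = DMSO wells and 100% = 5 µM fulvestrant positive control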
# experimentalParameters: ER-HoxA9 marrow cells, active compounds read high
I only need the number, in %, no unit after it.

compound	readoutKind	endpointValue
CC12CCC3C(CC=C4CC5(CCC43C)OCCO5)C1CCC2=O (centres undefined)	differentiation response	-4.09
Nc1ccc([As](=O)(O)O)cc1	differentiation response	-0.2
OCc1cnc[nH]1	differentiation response	-10.5
CC12CN3CC(C)(CN(C1)C3c1cccs1)C2O (centres undefined)	differentiation response	0.24
COc1ccc(OC)c(C(O)C(C)N)c1 (centres undefined)	differentiation response	24.7

[Q] Fill in: differentiation response of c1ccc2c(c1)Nc1ccccc1S2 is ___
[A] 1.64

[Q] Fill in: differentiation response of COc1ccc(C(=O)N2CCCC2=O)cc1 is ___
[A] 3.88

[Q] Fill in: differentiation response of NC(=O)CN1CCCC1=O is ___
[A] -1.64
